Record form. Attribute: OD490. Fill in for each entry.
molecular target: T1, M6; assay: scFv-phage ELISA
T1 construct: also called PD1 mutant M6
Numbers only.

Consider the following illustrative entries.
binder="PD1-52E8 (antibody, V domains shown, scFv-phage in the screening ELISA; whole IgG in the other assays) VH: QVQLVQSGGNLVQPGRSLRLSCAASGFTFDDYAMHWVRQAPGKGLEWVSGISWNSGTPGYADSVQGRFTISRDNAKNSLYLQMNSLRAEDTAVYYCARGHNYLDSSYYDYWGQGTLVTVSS VL: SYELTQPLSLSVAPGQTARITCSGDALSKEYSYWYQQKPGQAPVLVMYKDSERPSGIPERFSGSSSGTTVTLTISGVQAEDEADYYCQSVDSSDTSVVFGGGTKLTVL" quantity_kind=OD490 reported_value=3.4
binder="PD1-45F1 (antibody, V domains shown, scFv-phage in the screening ELISA; later whole IgG) VH: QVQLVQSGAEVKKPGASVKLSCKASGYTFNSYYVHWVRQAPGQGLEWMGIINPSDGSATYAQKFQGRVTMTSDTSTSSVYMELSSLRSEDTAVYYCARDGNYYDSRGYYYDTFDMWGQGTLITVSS VL: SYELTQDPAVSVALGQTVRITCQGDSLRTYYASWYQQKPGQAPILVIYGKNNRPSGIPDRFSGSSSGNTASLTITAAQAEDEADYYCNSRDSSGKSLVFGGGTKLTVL" quantity_kind=OD490 reported_value=4

We now examine a further binder.
OD490 lookup needed for PD1-45F4 (antibody, V domains shown, scFv-phage in the screening ELISA; later whole IgG) VH: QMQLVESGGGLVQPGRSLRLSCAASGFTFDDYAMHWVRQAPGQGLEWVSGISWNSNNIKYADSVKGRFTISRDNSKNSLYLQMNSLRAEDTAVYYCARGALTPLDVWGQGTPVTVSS VL: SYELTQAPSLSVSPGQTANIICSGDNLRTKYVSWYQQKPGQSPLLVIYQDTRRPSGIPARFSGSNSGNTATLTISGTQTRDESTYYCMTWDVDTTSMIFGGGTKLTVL , thanks. 3.7
